B1: KCNG1 (parent)
chain: LFVTVTAVNLSVSTLPSLREEEEQ

# Variants of: B1
# MEASUREMENT DESCRIPTION: protein stability index of a GFP-peptide fusion (GPS, HEK-293T) (PSI 1-6); higher = more stable;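 also: lentivirally expressed fusions sorted by FACS into six bins by GFP to DsRed ratio, PSI derived from sequencing read proportions per bin multiplied by bin number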
# TEST CONDITIONS: c terminus: a fixed tail appended
Hi, to clarify the labels: Criterion met covers protein stability index from 3 upward, Criterion not met covers anything below 3.

| MUTATION LABEL | ASSIGNED LABEL |
| --- | --- |
| F2L | Criterion not met |
| V12M | Criterion not met |
| P16K | Criterion not met |
| V3Q | Criterion met |
| V5I | Criterion met |
| T4Q | Criterion not met |
| V3K | Criterion met |
| V3Y | Criterion not met |
